All figures here come from patent US8592403B2.

pKi: −log10 of the molar value.
pKi tested on UniProt:P32245: recorded values
quantity measured: pKi

CC(C)(C)N1C[C@@H](C(=O)N2CCC[C@@H](c3ccc(Cl)cc3)N(C(=O)CC(F)(F)F)CC2)[C@H](c2ccc(F)cc2F)C1
6.09
COC(=O)N1CCN(C(=O)[C@@H]2CN(c3ccc(Cl)nn3)C[C@H]2c2ccc(OC)cc2F)CCCC1c1ccc(Cl)cc1 (mixture of isomers)
7.02
CNC(=O)N1CCN(C(=O)[C@@H]2CN(c3cccnn3)C[C@H]2c2ccc(F)cc2F)CCCC1c1ccccc1 (mixture of isomers)
6.65
CS(=O)(=O)N1CCN(C(=O)[C@@H]2CN(c3ccc(C#N)nn3)C[C@H]2c2ccc(Cl)cn2)CCC[C@H]1c1ccc(Cl)cc1
6.76
CC(=O)N1CCN(C(=O)[C@@H]2CN(c3ccc(C#N)nn3)C[C@H]2c2ccc(Cl)cn2)CCC[C@H]1c1ccc(Cl)cc1
7.15
CN(C)C(=O)N1CCN(C(=O)[C@@H]2CN(c3ccc(C#N)nn3)C[C@H]2c2ccc(Cl)cn2)CCC[C@H]1c1ccc(Cl)cc1
6.92
COc1ccc([C@@H]2CN(C(C)(C)C)C[C@H]2C(=O)N2CCC[C@@H](c3ccc(Cl)cc3)N(C(=O)C3CC(F)(F)C3)CC2)c(F)c1
5.44
COC(=O)N1CCN(C(=O)[C@@H]2CN(c3ccc(=O)n(C)n3)C[C@H]2c2ccc(OC)cc2F)CCC[C@H]1c1ccc(Cl)cc1
7.61

[P] COc1ccc([C@@H]2CN(C(C)(C)C)C[C@H]2C(=O)N2CCC[C@@H](c3ccc(Cl)cc3)N(C(C)=O)CC2)c(F)c1
[Q] COC(=O)N1CCN(C(=O)[C@@H]2CN(C3CCOCC3)C[C@H]2c2ccc(F)cc2F)CCCC1c1ccccc1 (mixture of isomers)
Problem: Given the listed records, identify the one among P and Q with higher pKi. Bench note: the answer is the label of the chosen record.
Solution: P

[a] CC(=O)N1CCN(C(=O)[C@@H]2CN(c3cccnn3)C[C@H]2c2ccc(F)cc2F)CCC1c1ccccc1 (mixture of isomers)
[b] CS(=O)(=O)N1CCN(C(=O)[C@@H]2CN(c3ccc(=O)[nH]n3)C[C@H]2c2ccc(F)cc2F)CCCC1c1ccc(Cl)cc1 (mixture of isomers)
Problem: Given the listed records, identify the one among a and b with higher pKi. Bench note: the answer is the label of the chosen record.
Solution: b

* * *

Molecular target: CYP3A4 (Homo sapiens)
Construct: utilizes human liver microsomes together with isoform-specific clinical drug probes; from tissue; host or cells: human liver microsomes
Assay: High density DDI 3 μM cocktail screen in human liver microsomes, midazolam probe
Assay type: in vitro ADME
Conditions: human, liver microsomes, probe midazolam, read-out: % inhibition 3A4 @ 3 μM
quantity measured: inhibition at 3 µM (%)

CCC(=O)N1CCN(C(=O)[C@@H]2CN(c3ccc(=O)n(C)n3)C[C@H]2c2ccc(F)cc2F)CCC[C@H]1c1ccc(Cl)cc1 [Example 35]
68.3

[I] COc1ccc([C@@H]2CN(c3cccnn3)C[C@H]2C(=O)N2CCC(c3ccc(Cl)cc3)N(S(C)(=O)=O)CC2)c(F)c1 (mixture of isomers) [Example 94]
[II] CC(C)(C)N1C[C@@H](C(=O)N2CCC[C@@H](c3ccc(Cl)cc3)N(C(=O)C3CCCC3)CC2)[C@H](c2ccc(F)cc2F)C1 [Example 17]
Problem: Given the listed records, identify the one among I and II with higher inhibition at 3 µM. Bench note: the answer is the label of the chosen record.
Solution: II
(II: 66.9%, I: 46.6%)

* * *

Target: CYP3A4 (Homo sapiens, UniProt P08684)
Construct: utilizes human liver microsomes together with isoform-specific clinical drug probes; from tissue; host or cells: human liver microsomes
Sequence (P08684 whole entry, canonical isoform): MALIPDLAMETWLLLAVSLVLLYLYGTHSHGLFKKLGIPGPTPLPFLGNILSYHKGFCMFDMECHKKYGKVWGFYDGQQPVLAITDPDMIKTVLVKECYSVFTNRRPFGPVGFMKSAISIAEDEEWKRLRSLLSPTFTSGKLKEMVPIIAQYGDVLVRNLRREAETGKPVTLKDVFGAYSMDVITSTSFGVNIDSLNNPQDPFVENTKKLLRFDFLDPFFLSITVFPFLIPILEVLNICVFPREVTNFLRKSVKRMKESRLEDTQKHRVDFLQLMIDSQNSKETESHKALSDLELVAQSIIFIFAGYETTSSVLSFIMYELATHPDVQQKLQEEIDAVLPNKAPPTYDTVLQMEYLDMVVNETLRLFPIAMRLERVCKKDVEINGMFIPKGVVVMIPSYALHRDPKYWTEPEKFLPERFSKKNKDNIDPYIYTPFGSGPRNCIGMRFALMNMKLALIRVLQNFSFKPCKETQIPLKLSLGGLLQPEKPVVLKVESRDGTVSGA
Assay: High density DDI 3 μM cocktail screen in human liver microsomes, midazolam probe
Assay type: in vitro ADME
Settings: human, liver microsomes, probe midazolam, read-out: % inhibition 3A4 @ 3 μM
quantity measured: inhibition at 3 µM (%)

CS(=O)(=O)N1CCN(C(=O)[C@@H]2CN(c3ccc(C#N)nn3)C[C@H]2c2ccc(C#N)cc2)CCCC1c1ccc(Cl)cc1 (mixture of isomers)
50
COC(=O)N1CCN(C(=O)[C@@H]2CN(c3ccc4nncn4n3)C[C@H]2c2ccc(F)cc2F)CCC[C@H]1c1ccc(Cl)cc1
76.9
CC(C)C(=O)N1CCN(C(=O)[C@@H]2CN(c3ccc(C#N)nn3)C[C@H]2c2ccc(F)cc2F)CCC[C@H]1c1ccc(Cl)cc1
59.2

* * *

Target: CYP3A4 (Homo sapiens, UniProt P08684)
Construct: utilizes human liver microsomes together with isoform-specific clinical drug probes; from tissue; host or cells: human liver microsomes
Test: High density DDI 3 μM cocktail screen in human liver microsomes, midazolam probe
Format: in vitro ADME
Conditions: human, liver microsomes, probe midazolam, read-out: % inhibition 3A4 @ 3 μM
quantity measured: inhibition at 3 µM (%)

[I] COc1ccc([C@@H]2CN(c3ccc(=O)n(C)n3)C[C@H]2C(=O)N2CCCC(c3ccc(Cl)cc3)N(S(C)(=O)=O)CC2)c(F)c1 (single isomer, unassigned) [Example 117]
[II] CC(=O)N1CCN(C(=O)[C@@H]2CN(c3cccnn3)C[C@H]2c2ccc(F)cc2F)CCC1c1ccccc1 (mixture of isomers) [Example 3]
[III] COC(=O)N1CCN(C(=O)[C@@H]2CN(c3ccc(=O)n(C)n3)C[C@H]2c2ccc(OC)cc2F)CCCC1c1ccc(Cl)cc1 (mixture of isomers) [Example 116]
Problem: Please list the entries, largest inhibition at 3 µM first. // format: requested-order list of labels
Solution: III, I, II
(III: 75%, I: 44.5%, II: 30%)

[P] COc1ccc([C@@H]2CN(c3ccc(C#N)nn3)C[C@H]2C(=O)N2CCCC(c3ccc(Cl)cc3)N(S(C)(=O)=O)CC2)c(F)c1 (mixture of isomers) [Example 105]
[Q] CS(=O)(=O)N1CCN(C(=O)[C@@H]2CN(c3ccc(C#N)nn3)C[C@H]2c2ccc(F)cc2F)CCCC1c1ccc(F)cc1 (mixture of isomers) [Example 77]
Problem: Given the listed records, identify the one among P and Q with higher inhibition at 3 µM. Bench note: the answer is the label of the chosen record.
Solution: Q
(Q: 56.5%, P: 37.5%)

[A] CS(=O)(=O)N1CCN(C(=O)C2CN(c3ccc(=O)[nH]n3)CC2c2ccc(F)cc2F)CCCC1c1ccc(F)cc1 (stereo not drawn) [Example 78]
[B] CNC(=O)N1CCN(C(=O)[C@@H]2CN(c3cccnn3)C[C@H]2c2ccc(F)cc2F)CCCC1c1ccccc1 (mixture of isomers) [Example 73]
Problem: Given the listed records, identify the one among A and B with higher inhibition at 3 µM. Bench note: the answer is the label of the chosen record.
Solution: B
(B: 88%, A: 49%)

* * *

Biological target: MC4 receptor (Homo sapiens, UniProt P32245)
Sequence (P32245 whole entry): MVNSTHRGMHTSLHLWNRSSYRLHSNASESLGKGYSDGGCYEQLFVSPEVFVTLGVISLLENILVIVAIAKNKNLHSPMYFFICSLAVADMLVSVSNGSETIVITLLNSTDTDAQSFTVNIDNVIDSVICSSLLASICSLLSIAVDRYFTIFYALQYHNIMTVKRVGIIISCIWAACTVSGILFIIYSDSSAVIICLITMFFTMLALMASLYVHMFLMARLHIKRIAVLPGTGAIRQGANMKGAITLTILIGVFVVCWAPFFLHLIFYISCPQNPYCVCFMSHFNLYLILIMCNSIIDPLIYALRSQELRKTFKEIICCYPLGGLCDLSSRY
Experiment: MC4 EC50 functional potency (protocol E of US2005/0176772 / WO 2005/077935)
Format: cell-based
pEC50: −log10 of the molar value.
quantity measured: pEC50

CC(C)(C)N1C[C@@H](C(=O)N2CCC[C@@H](c3ccc(Cl)cc3)N(C(=O)N3CCOCC3)CC2)[C@H](c2ccc(F)cc2F)C1 [Example 46]
7.71
COC(=O)N1CCN(C(=O)[C@@H]2CN(c3cccnn3)C[C@H]2c2ccc(F)cc2F)CCC1c1ccccc1 (mixture of isomers) [Example 49]
7.68
CCC(=O)N1CCN(C(=O)[C@@H]2CN(C(C)(C)C)C[C@H]2c2ccc(Cl)cn2)CCC[C@H]1c1ccc(Cl)cc1 [Example 19]
7.19

[a] CN(C)C(=O)N1CCN(C(=O)[C@@H]2CN(c3ccc(C#N)nn3)C[C@H]2c2ccc(Cl)cn2)CCC[C@H]1c1ccc(Cl)cc1 [Example 45]
[b] COC(=O)N1CCN(C(=O)[C@@H]2CN(C(=O)OC(C)(C)C)C[C@H]2c2ccc(F)cc2F)CCCC1c1ccccc1 (mixture of isomers) [Example 97]
Problem: Given the listed records, identify the one among a and b with higher pEC50. Bench note: the answer is the label of the chosen record.
Solution: a
(a: 7.97, b: 6.80)

* * *

Assay: In vitro metabolism rate determination, human liver microsome (HLM) assay
Assay type: in vitro ADME
Settings: human, liver microsomes, read-out: HLM: Clint, app
quantity measured: microsomal CLint at 1 μM (µL/min/mg)

// below: answered compounds
COC(=O)N1CCN(C(=O)[C@@H]2CN(C(C)(C)C)C[C@H]2c2ccc(OC)cc2F)CCCC1c1ccc(Cl)cc1 (stereo partly drawn) [Example 91]
46.9
CS(=O)(=O)N1CCN(C(=O)[C@@H]2CN(c3ccc(C#N)cn3)C[C@H]2c2ccc(F)cc2F)CCCC1c1ccccc1 (single isomer, unassigned) [Example 39]
177
COC(=O)N1CCN(C(=O)[C@@H]2CN(c3ccc(=O)n(C)n3)C[C@H]2c2ccc(F)cc2F)CCC[C@@H]1c1ccc(Cl)cc1 [Example 56]
20.5
COC(=O)N1CCN(C(=O)[C@@H]2CN(c3ccc(C#N)nn3)CC2c2ccc(OC)cc2F)CCCC1c1ccc(Cl)cc1 (stereo in doubt) [Example 106]
38
COc1ccc([C@@H]2CN(c3cccnn3)C[C@H]2C(=O)N2CCC(c3ccc(Cl)cc3)N(C(C)=O)CC2)c(F)c1 (mixture of isomers) [Example 93]
29.3
COc1ccc([C@@H]2CN(c3ccc(=O)[nH]n3)C[C@H]2C(=O)N2CCCC(c3ccc(Cl)cc3)N(S(C)(=O)=O)CC2)c(F)c1 (mixture of isomers) [Example 111]
24

[A] COC(=O)N1CCN(C(=O)[C@@H]2CN(c3ccc(Cl)nn3)C[C@H]2c2ccc(OC)cc2F)CCCC1c1ccc(Cl)cc1 (mixture of isomers) [Example 107]
[B] CC(C)(C)N1C[C@@H](C(=O)N2CCC[C@@H](c3ccc(Cl)cc3)N(C(=O)C3CCCC3)CC2)[C@H](c2ccc(F)cc2F)C1 [Example 17]
[C] CC(=O)N1CCN(C(=O)[C@@H]2CN(c3ccc4nncn4n3)C[C@H]2c2ccc(Cl)cn2)CCC[C@@H]1c1ccc(Cl)cc1 [Example 5]
[D] Cn1nc(N2C[C@@H](C(=O)N3CCC[C@@H](c4ccc(Cl)cc4)N(C(=O)C4CC4)CC3)[C@H](c3ccc(F)cc3F)C2)ccc1=O [Example 34]
Problem: List from greatest to least microsomal CLint at 1 μM. // format: requested-order list of labels
Solution: B, A, D, C
(B: 118 µL/min/mg, A: 47 µL/min/mg, D: 30.9 µL/min/mg, C: 17.4 µL/min/mg)

[A] COC(=O)N1CCN(C(=O)[C@@H]2CN(c3ccc(=O)n(C)n3)C[C@H]2c2ccc(F)cc2F)CCC[C@H]1c1ccc(Cl)cc1 [Example 66]
[B] COc1ccc([C@@H]2CN(c3ccc(C#N)nn3)C[C@H]2C(=O)N2CCC[C@@H](c3ccc(Cl)cc3)N(C(=O)C(C)C)CC2)c(F)c1 [Example 24]
Problem: # min-compare on microsomal CLint at 1 μM between A and B Bench note: the answer is the label of the chosen record.
Solution: A

[P] COC(=O)N1CCN(C(=O)[C@@H]2CN(c3ccc(=O)n(C)n3)C[C@H]2c2ccc(OC)cc2F)CCC[C@@H]1c1ccc(Cl)cc1 [Example 119]
[Q] CN(C)C(=O)N1CCN(C(=O)[C@@H]2CN(c3ccc(C#N)nn3)C[C@H]2c2ccc(Cl)cn2)CCC[C@H]1c1ccc(Cl)cc1 [Example 45]
[R] COC(=O)N1CCN(C(=O)[C@@H]2CN(C(C)(C)C)C[C@H]2c2ccc(F)cc2F)CCC1c1ccc(Cl)cc1 (mixture of isomers) [Example 86]
Problem: List from greatest to least microsomal CLint at 1 μM. // format: requested-order list of labels
Solution: Q, R, P
